# EXPERIMENTAL_TARGET: T1, PabPolB exo- (family B DNA polymerase, exonuclease-deficient) (Pyrococcus abyssi, UniProt P0CL77 1-771, D215A)
# T1 sequence: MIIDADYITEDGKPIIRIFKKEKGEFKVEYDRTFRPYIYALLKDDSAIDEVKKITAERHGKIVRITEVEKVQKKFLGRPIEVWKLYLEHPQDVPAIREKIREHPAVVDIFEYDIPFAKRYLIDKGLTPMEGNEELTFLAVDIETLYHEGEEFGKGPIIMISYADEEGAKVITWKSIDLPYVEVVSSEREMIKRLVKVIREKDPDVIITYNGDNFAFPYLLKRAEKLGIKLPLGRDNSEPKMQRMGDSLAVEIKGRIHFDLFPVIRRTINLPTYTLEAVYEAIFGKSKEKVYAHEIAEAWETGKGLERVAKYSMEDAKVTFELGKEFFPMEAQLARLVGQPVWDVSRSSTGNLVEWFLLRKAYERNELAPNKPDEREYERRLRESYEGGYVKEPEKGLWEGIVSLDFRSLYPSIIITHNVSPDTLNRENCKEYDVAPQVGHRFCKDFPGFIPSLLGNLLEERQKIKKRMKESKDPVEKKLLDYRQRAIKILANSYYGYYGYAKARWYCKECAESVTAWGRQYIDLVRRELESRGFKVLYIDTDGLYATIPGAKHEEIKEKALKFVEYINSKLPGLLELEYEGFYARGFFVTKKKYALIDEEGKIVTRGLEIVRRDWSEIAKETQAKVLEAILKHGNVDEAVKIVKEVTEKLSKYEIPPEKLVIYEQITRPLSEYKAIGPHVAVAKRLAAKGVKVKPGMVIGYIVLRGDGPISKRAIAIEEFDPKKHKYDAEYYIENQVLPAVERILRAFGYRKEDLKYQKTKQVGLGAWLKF
# ASSAY_NOTES: fluorescence anisotropy
PROPERTY: Kd
Be sure to follow the number with its unit.

Problem: # get_value(readout='Kd', item= HEX-labeled primer/template 18/25 (dsDNA) DNA 1: CGCCGGGCCGAGCCGTGC DNA 2: AGGTCGTGCACGGCTCGGCCCGGCG )
Result: 17 nM

Provenance of the data: paper PMC5716173
